These data points were gathered from ChEMBL document CHEMBL1148805.

assay: physchem
Description: Acid dissociation constant, pKa of the compound
endpoint: pKa

• O=c1cc(-c2ccc(O)c(O)c2)nc2ccccn12 = 6.8
• O=c1cc(-c2ccccc2)nc2c(O)cccn12 = 10.2
• O=c1cc(-c2ccc(O)cc2)nc2ccccn12 = 7.6

###

biological target: Aldo-keto reductase family 1 member B1 (Rattus norvegicus, UniProt P07943)
endpoint: IC50 (µM)

P. O=c1cc(-c2ccc(O)c(O)c2)nc2c(O)cccn12
Q. O=c1cc(-c2ccc(O)cc2)nc2ccccn12
### Prompt Response body: label of entry with the larger IC50; valid values P , Q . Reply with the label of the item you choose.
### Response Q
(Q: 4.56 µM, P: 0.45 µM)
